# assay_details: growth inhibitors of tim23-1 mutant yeast, primary screen, luminescence, uHTS (AID 463212);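 further: temperature-sensitive mutant grown at 25 °C; plate controls were DMSO-treated mutant yeast for no effect and medium wells lacking yeast for full effect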
# experimental_conditions: S. cerevisiae tim23-1 growth, BacTiter-Glo luminescence, 24 h; at 20 µM; hits give high values
In all, about 330,000 compounds went through this assay and about 4,400 (1.3%) were called active. Many of the other results were omitted from the sample, so actives are more common in it than they were.
property_measured: inhibition (%)

[[record]]
compound = "NC(=O)c1oc2ccccc2c1NC(=O)CS(=O)(=O)c1ccccc1"
measured_result = 6.4

[[record]]
compound = "O=C(c1ccccc1)c1cccn1CC(=O)N1CCN(c2ccc(F)cc2)CC1"
measured_result = 17.4

[[record]]
compound = "Cc1ccc(N2C(=O)CC(Sc3ncn[nH]3)C2=O)cc1 (stereo unspecified)"
measured_result = -0.146

[[record]]
compound = "COC(=O)c1ccc(/C=C2/C(=O)Oc3ccccc32)cc1"
measured_result = 34.3

[[record]]
compound = "COc1cc(NC(=O)c2ccc3c(c2)OCO3)ccc1NC(=O)c1cccs1"
measured_result = -5.22

[[record]]
compound = "CCOC(=O)C1CCCN(S(=O)(=O)c2ccc(-n3cnnn3)c(C)c2)C1 (stereo unspecified)"
measured_result = 2.62

[[record]]
compound = "CC[N+](C)(CC)CCC[n+]1c(-c2ccccc2)c2cc(N)ccc2c2ccc(N)cc21"
measured_result = -96.2

[[record]]
compound = "COc1ccc(N2C(=O)CC(Sc3n[nH]c(-c4ccc(C)cc4)n3)C2=O)cc1 (stereo unspecified)"
measured_result = 28.8

[[record]]
compound = "CCCc1nc2c(c(=O)c3ccccc3n2C)c(=O)n1C1CCCCCC1"
measured_result = 59.8

[[record]]
compound = "CC(C)(C)NC(=O)CN1CCC(NC(=O)C23CC4CC(CC(C4)C2)C3)CC1"
measured_result = 18

[[record]]
compound = "CCN(C(=O)c1cc([N+](=O)[O-])ccc1NCc1cccnc1)c1ccccc1"
measured_result = 24.3

[[record]]
compound = "CCc1ccc(Oc2nc([N+](=O)[O-])nn2C)cc1"
measured_result = 27.6

[[record]]
compound = "COc1ccc2c(c1)O/C(=C\\c1ccccc1O)C2=O"
measured_result = 0.978

[[record]]
compound = "COc1ccc(C(c2nnnn2C2CCCCC2)N2CCN(c3ccccc3F)CC2)cc1 (stereo unspecified)"
measured_result = 14.3

[[record]]
compound = "Cc1cccc(C)c1NC(=O)CN(C)C(=O)CCC(=O)c1ccccc1"
measured_result = 15

[[record]]
compound = "CCOC(=O)C1CSC(CC(=O)Nc2ccc(OCC)cc2)C(=O)N1 (stereo unspecified)"
measured_result = 4.52

